Recorded values, source the supplement of paper PMC9112550.

# System: Escherichia coli TOP10
# PROTOCOL NOTES: shrunken log2 fold change of peptide-encoding DNA abundance (4.5 h post-induction vs induction); higher = less antimicrobial activity (less host growth inhibition)
# CONDITION LABEL: time post-induction: 4.5 h; library: site-saturation at positions 5, 18, 19, 20
METRIC NAME: shrunken log2 fold change
Respond with the number and no other words.

# POLYMER SEQUENCE, OBS VALUE
data = [
    ("RRIRPRPPRLPRPRPRPEWQPRP", 0.137),
    ("RRIRTRPPRLPRPRPRPIDKPRP", -0.175),
    ("RRIRERPPRLPRPRPRPDMTPRP", 0.133),
    ("RRIRTRPPRLPRPRPRPRMMPRP", 1.32),
    ("RRIRVRPPRLPRPRPRPFWEPRP", -0.0891),
    ("RRIRDRPPRLPRPRPRPTVDPRP", 0.195),
    ("RRIRHRPPRLPRPRPRPDAVPRP", 0.0938),
    ("RRIRPRPPRLPRPRPRPRMGPRP", 0.38),
]

[Q] Lab note: record shrunken log2 fold change of RRIRWRPPRLPRPRPRPLGLPRP tested on Escherichia coli TOP10.
[A] 0.116

[Q] Lab note: record shrunken log2 fold change of RRIRDRPPRLPRPRPRPYSAPRP tested on Escherichia coli TOP10.
[A] -0.0545

[Q] Lab note: record shrunken log2 fold change of RRIRERPPRLPRPRPRPWYMPRP tested on Escherichia coli TOP10.
[A] -0.386

[Q] Lab note: record shrunken log2 fold change of RRIRDRPPRLPRPRPRPIHNPRP tested on Escherichia coli TOP10.
[A] -0.06

[Q] Lab note: record shrunken log2 fold change of RRIRPRPPRLPRPRPRPDQKPRP tested on Escherichia coli TOP10.
[A] -0.0552

[Q] Lab note: record shrunken log2 fold change of RRIRRRPPRLPRPRPRPAPAPRP tested on Escherichia coli TOP10.
[A] 1.1

[Q] Lab note: record shrunken log2 fold change of RRIRKRPPRLPRPRPRPFEWPRP tested on Escherichia coli TOP10.
[A] -0.0618

[Q] Lab note: record shrunken log2 fold change of RRIRMRPPRLPRPRPRPTALPRP tested on Escherichia coli TOP10.
[A] 0.33

[Q] Lab note: record shrunken log2 fold change of RRIRLRPPRLPRPRPRPPNIPRP tested on Escherichia coli TOP10.
[A] -0.346

[Q] Lab note: record shrunken log2 fold change of RRIRQRPPRLPRPRPRPMPWPRP tested on Escherichia coli TOP10.
[A] 0.117

[Q] Lab note: record shrunken log2 fold change of RRIRYRPPRLPRPRPRPWIEPRP tested on Escherichia coli TOP10.
[A] -0.866

[Q] Lab note: record shrunken log2 fold change of RRIRERPPRLPRPRPRPGHTPRP tested on Escherichia coli TOP10.
[A] -0.0164

[Q] Lab note: record shrunken log2 fold change of RRIRWRPPRLPRPRPRPMWTPRP tested on Escherichia coli TOP10.
[A] 0.171

* * *

Recorded measurements of shrunken log2 fold change, one per entry
# Tested on: Escherichia coli TOP10
# PROTOCOL NOTES: shrunken log2 fold change of peptide-encoding DNA abundance (4.5 h post-induction vs induction); higher = less antimicrobial activity (less host growth inhibition)
# CONDITION LABEL: time post-induction: 4.5 h; library: site-saturation at positions 5, 18, 19, 20
Respond with the number and no other words.

# POLYMER SEQUENCE, shrunken log2 fold change
rows = [
    ("RRIRKRPPRLPRPRPRPPKMPRP", 0.383),
    ("RRIRSRPPRLPRPRPRPWCQPRP", -0.119),
    ("RRIRSRPPRLPRPRPRPSTIPRP", -0.482),
    ("RRIRARPPRLPRPRPRPNQWPRP", 0.724),
]

[Q] Supply shrunken log2 fold change value. Item: RRIRCRPPRLPRPRPRPAGVPRP
[A] 0.259

[Q] Supply shrunken log2 fold change value. Item: RRIRMRPPRLPRPRPRPGGKPRP
[A] 0.583

[Q] Supply shrunken log2 fold change value. Item: RRIRTRPPRLPRPRPRPRVAPRP
[A] 0.258

[Q] Supply shrunken log2 fold change value. Item: RRIRDRPPRLPRPRPRPNGWPRP
[A] 0.612

[Q] Supply shrunken log2 fold change value. Item: RRIRVRPPRLPRPRPRPQNPPRP
[A] -0.396

[Q] Supply shrunken log2 fold change value. Item: RRIRMRPPRLPRPRPRPMRHPRP
[A] 0.452

[Q] Supply shrunken log2 fold change value. Item: RRIRRRPPRLPRPRPRPKRAPRP
[A] 0.52

[Q] Supply shrunken log2 fold change value. Item: RRIRNRPPRLPRPRPRPWYKPRP
[A] -0.00149

* * *

Recorded measurements of shrunken log2 fold change, one per entry
# Test system: Escherichia coli TOP10
# PROTOCOL NOTES: shrunken log2 fold change of peptide-encoding DNA abundance (4.5 h post-induction vs induction); higher = less antimicrobial activity (less host growth inhibition)
# CONDITION LABEL: time post-induction: 4.5 h; library: site-saturation at positions 5, 18, 19, 20
Respond with the number and no other words.

# POLYMER SEQUENCE, shrunken log2 fold change
records = [
    ("RRIRGRPPRLPRPRPRPRIKPRP", 0.487),
    ("RRIRGRPPRLPRPRPRPWHLPRP", -0.188),
    ("RRIRPRPPRLPRPRPRPYDSPRP", -0.977),
    ("RRIRDRPPRLPRPRPRPMIGPRP", 0.266),
    ("RRIRHRPPRLPRPRPRPCSSPRP", 0.032),
    ("RRIRQRPPRLPRPRPRPSPGPRP", 0.194),
]

Now look at this one.
[Q] Supply shrunken log2 fold change value. Item: RRIRMRPPRLPRPRPRPLPTPRP
[A] 1.36

* * *

Recorded measurements of shrunken log2 fold change, one per entry
# Tested on: Escherichia coli TOP10
# PROTOCOL NOTES: shrunken log2 fold change of peptide-encoding DNA abundance (4.5 h post-induction vs induction); higher = less antimicrobial activity (less host growth inhibition)
# CONDITION LABEL: time post-induction: 4.5 h; library: site-saturation at positions 5, 18, 19, 20
Respond with the number and no other words.

Recorded shrunken log2 fold change, per entry:
# POLYMER SEQUENCE, SYSTEM, OBS VALUE
rows = [
    ("RRIRQRPPRLPRPRPRPMCRPRP", "Escherichia coli TOP10", -0.0374),
    ("RRIRRRPPRLPRPRPRPCTQPRP", "Escherichia coli TOP10", 0.207),
    ("RRIRQRPPRLPRPRPRPAFEPRP", "Escherichia coli TOP10", -0.0876),
    ("RRIRWRPPRLPRPRPRPPFRPRP", "Escherichia coli TOP10", 0.632),
]

[Q] Supply shrunken log2 fold change value. Item: RRIRIRPPRLPRPRPRPKNAPRP
[A] -0.107

[Q] Supply shrunken log2 fold change value. Item: RRIRRRPPRLPRPRPRPWGMPRP
[A] 0.137

* * *

Recorded measurements of shrunken log2 fold change, one per entry
# Tested on: Escherichia coli TOP10
# PROTOCOL NOTES: shrunken log2 fold change of peptide-encoding DNA abundance (4.5 h post-induction vs induction); higher = less antimicrobial activity (less host growth inhibition)
# CONDITION LABEL: time post-induction: 4.5 h; library: site-saturation at positions 5, 18, 19, 20
Respond with the number and no other words.

[Q] Lab note: record shrunken log2 fold change of RRIRIRPPRLPRPRPRPWAVPRP tested on Escherichia coli TOP10.
[A] -0.203

[Q] Lab note: record shrunken log2 fold change of RRIRYRPPRLPRPRPRPIMCPRP tested on Escherichia coli TOP10.
[A] -0.197

[Q] Lab note: record shrunken log2 fold change of RRIRARPPRLPRPRPRPNYMPRP tested on Escherichia coli TOP10.
[A] -0.2

* * *

# Tested on: Escherichia coli TOP10
# PROTOCOL NOTES: shrunken log2 fold change of peptide-encoding DNA abundance (4.5 h post-induction vs induction); higher = less antimicrobial activity (less host growth inhibition)
# CONDITION LABEL: time post-induction: 4.5 h; library: site-saturation at positions 5, 18, 19, 20
METRIC NAME: shrunken log2 fold change
Respond with the number and no other words.

Recorded shrunken log2 fold change, per entry:
# POLYMER SEQUENCE, shrunken log2 fold change
data = [
    ("RRIRIRPPRLPRPRPRPGGNPRP", -0.0373),
    ("RRIRERPPRLPRPRPRPIIGPRP", -0.249),
    ("RRIRQRPPRLPRPRPRPPMWPRP", 0.336),
    ("RRIRFRPPRLPRPRPRPQECPRP", 0.0519),
    ("RRIRCRPPRLPRPRPRPLWFPRP", -0.315),
    ("RRIRNRPPRLPRPRPRPLPLPRP", 0.187),
    ("RRIRTRPPRLPRPRPRPQEWPRP", -0.0128),
    ("RRIRFRPPRLPRPRPRPPTCPRP", 0.186),
    ("RRIRWRPPRLPRPRPRPARQPRP", 0.0282),
    ("RRIRNRPPRLPRPRPRPDPLPRP", -0.0328),
]

[Q] Lab note: record shrunken log2 fold change of RRIRDRPPRLPRPRPRPNLQPRP tested on Escherichia coli TOP10.
[A] -0.71

[Q] Lab note: record shrunken log2 fold change of RRIRPRPPRLPRPRPRPQPPPRP tested on Escherichia coli TOP10.
[A] 0.509

[Q] Lab note: record shrunken log2 fold change of RRIRGRPPRLPRPRPRPGLWPRP tested on Escherichia coli TOP10.
[A] 1.03

[Q] Lab note: record shrunken log2 fold change of RRIRSRPPRLPRPRPRPGMPPRP tested on Escherichia coli TOP10.
[A] -0.122

[Q] Lab note: record shrunken log2 fold change of RRIRCRPPRLPRPRPRPPYDPRP tested on Escherichia coli TOP10.
[A] -0.0699

[Q] Lab note: record shrunken log2 fold change of RRIRQRPPRLPRPRPRPTKLPRP tested on Escherichia coli TOP10.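 Note: peptides expressed intracellularly from a pBAD plasmid library in pooled LB shake-flask culture, induced with 0.3% L-arabinose, DNA abundance read by NGS, three biological replicates, DESeq2 with apeglm shrinkage.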
[A] -0.0369
